Assignment: determine reported pIC50 for the given compounds.
assayed.target: pre-formed polyQ46 or Exon1-polyQ46 aggregates (mHTT) (Homo sapiens, UniProt P42858, INS38QQQQQQQQQQQQQQQQQQQQQQQQQ)
procedure.text: Q46_RBA radioligand binding assay (displacement of [3H]-radioligand)
pIC50: −log10 of the molar value.

Prompt line: pIC50 for CC(C)C[C@H](NC(=O)[C@@H](O)[C@H](N)Cc1ccccc1)C(=O)NCCOCCOCCOc1ccc(C(=O)Nc2ccc3oc(-c4ccc(=O)n(C)n4)nc3c2)nc1 (stereo in doubt) ?
Response line: > 7.00

Prompt line: pIC50 for `Cc1ncsc1-c1ccc(CNC(=O)[C@@H]2C[C@@H](O)CN2C(=O)[C@@H](NC(=O)CCOCCOCCOCCOCCOCCOc2ccc(C(=O)Nc3ccc4oc(-c5ccc(=O)n(C)n5)nc4c3)nc2)C(C)(C)C)cc1` ?
Response line: > 7.00

Prompt line: pIC50 for Cc1ccc2nc(-c3ccc(NCCOCCOCCOc4cc(-c5scnc5C)ccc4CNC(=O)C4C[C@@H](O)CN4C(=O)[C@H](C(C)C)N4Cc5ccccc5C4=O)cc3)sc2c1 (stereo partly drawn) ?
Response line: 6.30 to 7.00
